- System: lambsquarters
- Method description: Test C pre-/postemergence herbicide test
- Format: in vivo, Chenopodium album
- Measurement setup: Preemergence, 125 g ai/ha; scale 0 to 100 (0 no effect, 100 complete control)
Classify by measured Plant response rating, Lambsquarters: Y if it is equal to or exceeds 70, N if it is smaller.

{"columns": ["Compound", "Assigned category"],
 "data": [
  ["O=C1NCC(c2ccc(C(F)(F)F)cc2)C1C(=O)Nc1cccc(F)c1F (stereo not shown) [Compound 80]", "Y"],
  ["O=C1NCC(c2ccc(C(F)(F)F)cc2)C1C(=O)Nc1ccccc1F (stereo not shown) [Compound 79]", "Y"],
  ["O=C1NCC(c2cc(F)cc(F)c2)C1C(=O)Nc1ccccc1Cl (racemic) [Compound 280]", "N"],
  ["O=C1NCC(c2ccc(C(F)(F)F)cc2)C1C(=O)Nc1cccc(F)c1F (racemic) [Compound 202]", "Y"],
  ["O=C1NCC(c2ccc(F)c(C(F)(F)F)c2)C1C(=O)Nc1cccc(F)c1F (racemic) [Compound 77]", "Y"],
  ["CN1CC(c2ccc(F)c(F)c2)C(C(=O)Nc2cccc(F)c2F)C1=O (stereo not shown) [Compound 303]", "N"]
]}

----------
- Tested on: lambsquarters
- Method description: Test C pre-/postemergence herbicide test
- Format: in vivo, Chenopodium album
- Measurement setup: Postemergence, 31 g ai/ha; scale 0 to 100 (0 no effect, 100 complete control)
- Description: […]

{"columns": ["Compound", "Assayed system", "Plant response rating, Lambsquarters"],
 "data": [
  ["O=C1NCC(c2ccc(F)c(F)c2)C1C(=O)Nc1ccc(F)c(F)c1F (stereo not shown) [Compound 346]", "lambsquarters", 45],
  ["CN1CC(c2ccc(F)c(F)c2)C(C(=O)Nc2cccc(F)c2F)C1=O (stereo not shown) [Compound 303]", "lambsquarters", 35],
  ["O=C1NC[C@H](c2cccc(C(F)(F)F)c2)[C@H]1C(=O)Nc1cccc(F)c1F [Compound 206]", "lambsquarters", 50],
  ["O=C1NCC(c2cccc(Br)c2)C1C(=O)Nc1ccc(F)c(F)c1F (stereo not shown) [Compound 310]", "lambsquarters", 25]
]}

----------
Readings of Plant response rating for the listed compounds
- Tested on: field poppy
- Method description: Test D pre-/postemergence herbicide test
- Format: in vivo, Papaver rhoeas
- Measurement setup: Postemergence; 62 g ai/ha; Field Poppy; scale 0 to 100
- Text: […]
Reported endpoint: Plant response rating

{"columns": ["Compound", "Recorded number"],
 "data": [
  ["O=C1NCC(c2ccc(Cl)c(F)c2)C1C(=O)Nc1cccc(F)c1F (stereo not shown)", 0],
  ["O=C1NCC(c2ccc(F)c(F)c2)C1C(=O)Nc1ccccc1C(F)(F)F (racemic)", 20],
  ["O=C1NCC(c2ccc(C(F)(F)F)cc2)C1C(=O)Nc1cccc(F)c1F (racemic)", 75],
  ["O=C1NCC(c2cc(F)c(F)cc2F)C1C(=O)Nc1cccc(F)c1F (stereo not shown)", 0]
]}

----------
- Tested on: corn
- Method description: Test C pre-/postemergence herbicide test
- Type: in vivo, Zea mays
- Measurement setup: Preemergence, 62 g ai/ha; scale 0 to 100 (0 no effect, 100 complete control)
Listed compounds paired with reported Corn plant response rating
Reported endpoint: Corn plant response rating

{"columns": ["Compound", "Recorded number"],
 "data": [
  ["CN1CC(c2ccc(F)c(F)c2)C(C(=O)Nc2cccc(F)c2F)C1=O (stereo not shown) [Compound 303]", 20],
  ["O=C1NC[C@H](c2cccc(C(F)(F)F)c2)[C@H]1C(=O)Nc1cccc(F)c1F [Compound 206]", 60],
  ["O=C1NCC(c2cccc(Br)c2)C1C(=O)Nc1ccc(F)c(F)c1F (stereo not shown) [Compound 310]", 0],
  ["O=C1NCC(c2cccc(C(F)(F)F)c2)C1C(=O)Nc1ccc(F)c(F)c1F (stereo not shown) [Compound 345]", 35]
]}

Sourced from patent US10294202B2
